biological target: S100P; assay: FP; direct
pKd: −log10 of the molar value.
parameter: pKd

| binder | pKd |
| --- | --- |
| RRLLFYKYVYKR [NCX1 (254-265) peptide] | 5.40 |
| RKLQRELEDATETADAMNREVSSLKNKLRRGDLPFVVPRRMARK [NMIIA (1894-1937) peptide] | 6.00 |
| VLQTWLQDLLRRGLVRAAQ [TRPM4 (129-147) peptide] | 6.03 |

1. SEGLMNVLKKIYEDG [SIP (188-202) peptide]
2. TRTKIDWNKILS [CapZ (265-276) peptide]
Enquiry: Returns the identifier with the smallest measured pKd among 1 and 2 . Kindly state the label of the option you pick.
Return: 1
(1: 4.42, 2: 4.96)
